target: long form of human GPR120 (Homo sapiens, UniProt Q5NUL3); assay: Human GPR120 DiscoveRx PathHunter Beta-Arrestin assay, Procedure β-arrestin A; conditions: PathHunter CHO-K1 GPR120 β-Arrestin cell line, 3000 cells per well, read-out: hGPR120 β-arrestin A EC50
Sequence (Q5NUL3 1-377 isoform Q5NUL3-1): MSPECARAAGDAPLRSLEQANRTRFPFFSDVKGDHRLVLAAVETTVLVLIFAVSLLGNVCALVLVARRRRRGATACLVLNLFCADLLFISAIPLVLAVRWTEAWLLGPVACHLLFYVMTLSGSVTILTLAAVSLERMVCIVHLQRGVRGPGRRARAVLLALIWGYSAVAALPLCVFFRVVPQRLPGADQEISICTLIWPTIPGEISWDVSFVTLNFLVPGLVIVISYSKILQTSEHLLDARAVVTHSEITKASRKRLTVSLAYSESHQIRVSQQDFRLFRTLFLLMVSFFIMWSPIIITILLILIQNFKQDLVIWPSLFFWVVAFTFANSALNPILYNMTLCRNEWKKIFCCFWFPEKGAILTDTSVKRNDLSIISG
Sequence (P32121 whole entry partner): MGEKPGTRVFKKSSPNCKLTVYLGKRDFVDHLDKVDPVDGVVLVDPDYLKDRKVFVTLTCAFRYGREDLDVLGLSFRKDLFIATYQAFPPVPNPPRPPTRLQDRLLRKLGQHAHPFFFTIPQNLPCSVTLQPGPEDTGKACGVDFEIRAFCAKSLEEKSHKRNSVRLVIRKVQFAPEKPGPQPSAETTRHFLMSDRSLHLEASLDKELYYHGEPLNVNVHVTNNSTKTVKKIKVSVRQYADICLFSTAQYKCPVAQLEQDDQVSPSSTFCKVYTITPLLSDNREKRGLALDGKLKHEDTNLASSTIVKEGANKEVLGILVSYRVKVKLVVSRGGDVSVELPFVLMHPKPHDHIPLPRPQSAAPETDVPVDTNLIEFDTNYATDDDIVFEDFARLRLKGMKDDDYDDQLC
Entries and their EC50 values follow.
Write it as a number; the unit nM goes unstated.

Some compounds with recorded EC50:
O=C(O)CCc1cc(F)c(OCc2c(-c3ccc(Cl)cc3)csc2C(F)(F)F)c(F)c1F [Cpd 50] | 100
OCCCc1ccc(OCc2c(Cl)nsc2-c2ccc(Cl)cc2)c(F)c1F [Cpd 102] | 40

Now look at this one.
Q. Field request: EC50 | item: Cc1c(CCC(=O)O)ccc(OCc2c(Cl)nsc2-c2ccc(Cl)cc2F)c1C [Cpd 122]
A. 1290

* * *

Target: long form of human GPR120 (Homo sapiens, UniProt Q5NUL3)
Construct: host or cells: PathHunter CHO-K1 GPR120 β-Arrestin Cell Line
Experiment: Human GPR120 DiscoveRx PathHunter Beta-Arrestin assay, Procedure β-arrestin A
Format: cell-based
Settings: PathHunter CHO-K1 GPR120 β-Arrestin cell line, 3000 cells per well, read-out: hGPR120 β-arrestin A EC50
Excerpt: The binding of an agonist (medium/long chain fatty acids or small molecule agonists) to the G-protein-coupled receptor GPR120 activates phospholipase C, leading to release of intracellular Ca^+2 through the generation of inositol 1,4,5-trisphosphate (InsP3 or IP3). […] In the present method, agonist-induced activation of the human GPR120 receptor is monitored through the use of PathHunter CHO-K1 GPR120 Beta-Arrestin Cell Line engineered by DiscoveRx, as detailed below. […]
measured.endpoint: pEC50
When answering, recall that pEC50 equals minus log10 of the concentration in mol/L, and write that number alone.

Q. Field request: pEC50 | item: OCC#Cc1cc(F)c(OCc2c(-c3ccc(Cl)cc3)nsc2C(F)(F)F)c(F)c1 [Cpd 213]
A. 7.23

Q. Field request: pEC50 | item: COc1ccc(-c2nsc(C(F)(F)F)c2COc2c(F)cc(CCCO)cc2F)cn1 [Cpd 81]
A. 7.03

Q. Field request: pEC50 | item: CCc1ccc(-c2cscc2COc2ccc(CCC(=O)O)c(C)c2C)cc1 [Cpd 41]
A. 6.15

* * *

Biological target: short form of the GPR120 receptor (GPR120S) (Homo sapiens)
Sequence (Q5NUL3 whole entry): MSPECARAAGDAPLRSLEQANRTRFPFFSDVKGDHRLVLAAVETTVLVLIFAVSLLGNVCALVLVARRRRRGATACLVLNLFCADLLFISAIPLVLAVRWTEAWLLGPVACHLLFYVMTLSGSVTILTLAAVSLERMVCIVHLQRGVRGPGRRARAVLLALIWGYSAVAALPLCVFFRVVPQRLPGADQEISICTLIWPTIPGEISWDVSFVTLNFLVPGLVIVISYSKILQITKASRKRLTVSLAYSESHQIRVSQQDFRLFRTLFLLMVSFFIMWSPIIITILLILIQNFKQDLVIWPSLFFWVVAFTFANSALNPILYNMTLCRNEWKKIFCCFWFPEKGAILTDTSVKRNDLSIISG
Sequence (P32121 whole entry partner): as the sequence (P32121 whole entry partner) above
Test: Human GPR120 DiscoveRx PathHunter Beta-Arrestin assay, Procedure β-arrestin B
Conditions: PathHunter CHO-K1 GPR120S β-Arrestin cell line, 5000 cells/well, read-out: hGPR120 β-arrestin B EC50
Excerpt: The binding of an agonist (medium/long chain fatty acids or small molecule agonists) to the G-protein-coupled receptor GPR120 activates phospholipase C, leading to release of intracellular Ca^+2 through the generation of inositol 1,4,5-trisphosphate (InsP3 or IP3). […] In the present method, agonist-induced activation of the human GPR120 receptor is monitored through the use of PathHunter CHO-K1 GPR120 Beta-Arrestin Cell Line engineered by DiscoveRx, as detailed below. […]
Entries get a class label from measured EC50. See ranges: label 0: < 100 nM; label 1: ≥ 100 nM and < 400 nM; label 2: ≥ 400 nM

Answered cases to consult:
Cc1c(CCC(=O)O)ccc(OCc2c(-c3ccc(C#N)cc3)nsc2C(F)(F)F)c1C | label 2
Cc1ccc(-c2snc(Cl)c2COc2ccc(CCC(=O)O)c(C(F)(F)F)c2)c(F)c1 | label 1
CCc1ccc(-c2nsc(C(F)(F)F)c2COc2c(F)cc(CCC(=O)O)cc2F)cc1F | label 0
CCc1cc(CCC(=O)O)c(C(F)(F)F)cc1OCc1c(Cl)nsc1-c1ccccc1C | label 2
COc1ncc(-c2nsc(C(F)(F)F)c2COc2ccc(CCC(=O)O)c(C)c2C)s1 | label 2
Cc1ccc(-c2nsc(C(F)(F)F)c2COc2c(F)cc(CCC(=O)O)cc2F)cc1F | label 0

Q. Would you mind sorting `CCc1ccc(-c2cc(F)sc2COc2ccc(CCC(=O)O)c(C)c2C)cc1` into the appropriate category?
A. label 1

Q. Would you mind sorting `COc1ccc(-c2nsc(C(F)(F)F)c2COc2c(F)cc(CCC(=O)O)cc2F)cc1F` into the appropriate category?
A. label 0

Q. Would you mind sorting `Cc1ccc(-c2nsc(C(F)(F)F)c2COc2ccc(CCC(=O)O)c(C(F)(F)F)c2)c(F)c1` into the appropriate category?
A. label 2
